measurementDescription: Cytotoxicity against human SKBR3 cells by Alamar Blue assay
Format: functional, cell-based
experimentalContext: SK-BR-3
Reported IC50 is given for each of the following molecules.
propertyLabel: IC50

> print(dat)
                          structureassmiles  propertylabel  testvalue
1  C#Cc1cccc(Nc2ncnc3ccc(NC(=O)c4ccc(C(=O)Nc5ccccc5N)s4)cc23)c1           IC50    > 50 µM
2  C#Cc1cccc(Nc2ncnc3cc(NC(=O)c4ccc(C(=O)Nc5ccccc5N)nc4)ccc23)c1           IC50    > 50 µM
3  C#Cc1cccc(Nc2ncnc3ccc(NC(=O)c4ccc(C(=O)Nc5ccccc5N)cc4)cc23)c1           IC50    > 50 µM
